molecular target: recombinant HDAC4 (Homo sapiens, UniProt P56524); assay: In vitro HDAC enzymatic assay, HDAC4; conditions: read-out: IC50 for inhibition of enzymatic activity of HDAC4; Class IIa
Sequence (P56524 whole entry): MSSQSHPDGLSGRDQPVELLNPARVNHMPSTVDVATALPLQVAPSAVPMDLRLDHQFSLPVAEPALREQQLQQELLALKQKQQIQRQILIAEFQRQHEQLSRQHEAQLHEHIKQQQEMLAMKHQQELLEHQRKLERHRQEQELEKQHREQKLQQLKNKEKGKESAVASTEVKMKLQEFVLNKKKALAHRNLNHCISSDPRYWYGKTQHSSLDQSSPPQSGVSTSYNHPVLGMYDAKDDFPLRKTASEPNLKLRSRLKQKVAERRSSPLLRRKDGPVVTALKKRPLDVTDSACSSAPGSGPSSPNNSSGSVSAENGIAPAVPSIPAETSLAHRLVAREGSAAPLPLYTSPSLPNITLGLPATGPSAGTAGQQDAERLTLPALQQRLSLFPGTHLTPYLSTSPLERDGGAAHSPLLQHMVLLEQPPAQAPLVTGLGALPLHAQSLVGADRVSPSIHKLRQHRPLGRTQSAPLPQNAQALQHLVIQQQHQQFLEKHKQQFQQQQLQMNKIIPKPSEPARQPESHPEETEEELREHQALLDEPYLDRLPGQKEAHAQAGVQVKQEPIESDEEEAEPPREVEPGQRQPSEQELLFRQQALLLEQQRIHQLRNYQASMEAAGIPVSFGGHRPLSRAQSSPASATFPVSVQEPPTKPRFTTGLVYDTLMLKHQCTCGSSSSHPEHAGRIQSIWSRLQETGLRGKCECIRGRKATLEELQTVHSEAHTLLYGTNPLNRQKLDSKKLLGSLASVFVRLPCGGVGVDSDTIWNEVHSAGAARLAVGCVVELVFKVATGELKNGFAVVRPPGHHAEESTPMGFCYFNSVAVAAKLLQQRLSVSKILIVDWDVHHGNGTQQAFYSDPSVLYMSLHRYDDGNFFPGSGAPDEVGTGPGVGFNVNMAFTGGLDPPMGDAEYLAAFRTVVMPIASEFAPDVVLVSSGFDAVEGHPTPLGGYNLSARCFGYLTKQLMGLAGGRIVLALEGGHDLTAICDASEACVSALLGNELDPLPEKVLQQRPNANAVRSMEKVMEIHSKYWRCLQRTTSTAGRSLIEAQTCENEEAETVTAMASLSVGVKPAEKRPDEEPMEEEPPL
observed property: IC50

Give the reported IC50 for O=C(CCCCCC(=O)NN=Cc1ccc(-c2ccccc2)cc1)NO [crebinostat] (system: recombinant HDAC4 (Homo sapiens, UniProt P56524)).
> 2000 nM
